Reference source: patent US5608091A

# protocolDescription: Color tone of the dye
# Format: physicochemical
# measurementParameters: Tables 1-9
resultType: Color tone

Lab note: CCCCCCCCOc1c(F)c2c(c(F)c1Nc1cccc(C(=O)OCC)c1)C(=O)c1c(O)ccc(O)c1C2=O gave Color tone of Magenta

Lab note: CC(C)(C)Sc1c(F)c2c(c(F)c1SC(C)(C)C)C(=O)c1c(O)ccc(O)c1C2=O gave Color tone of Orange

Lab note: COc1cccc(Nc2c(F)c(F)c3c(c2F)C(=O)c2c(O)ccc(O)c2C3=O)c1 gave Color tone of Magenta

Lab note: COc1ccc(Nc2c(F)c3c(c(F)c2Nc2ccc(OC)cc2)C(=O)c2c(O)ccc(O)c2C3=O)cc1 gave Color tone of Cyan

Lab note: O=C1c2c(O)ccc(O)c2C(=O)c2c(F)c(Nc3c(Cl)cccc3Cl)c(Nc3c(Cl)cccc3Cl)c(F)c21 gave Color tone of Blue

Lab note: O=C1c2c(O)ccc(O)c2C(=O)c2c(F)c(Nc3c(Cl)cccc3Cl)c(F)c(F)c21 gave Color tone of Magenta

---
Lab note: CCCCCCSc1c(F)c2c(c(F)c1SCCCCCC)C(=O)c1c(O)ccc(O)c1C2=O gave Color tone of Orange

Lab note: O=C1c2c(O)ccc(O)c2C(=O)c2c(F)c(Nc3ccccc3)c(Nc3ccccc3)c(F)c21 gave Color tone of Cyan

====

Recorded λ max, one value per entry.
# protocolDescription: Visible absorption spectrum (λmax, ε)
# Type: physicochemical
# measurementParameters: in chloroform
Supply the numeric figure in nm, leaving out any unit text.

Lab note: CC(C)(C)c1ccc(Nc2c(F)c(F)c3c(c2F)C(=O)c2c(O)ccc(O)c2C3=O)cc1 gave λ max of 540

Lab note: COc1cccc(Nc2c(F)c3c(c(F)c2Nc2cccc(OC)c2)C(=O)c2c(O)ccc(O)c2C3=O)c1 gave λ max of 651

Lab note: CC(C)c1cccc(C(C)C)c1Nc1c(F)c2c(c(F)c1Nc1c(C(C)C)cccc1C(C)C)C(=O)c1c(O)ccc(O)c1C2=O gave λ max of 660

Lab note: O=C1c2c(O)ccc(O)c2C(=O)c2c(F)c(Sc3ccc(O)cc3)c(Sc3ccc(O)cc3)c(F)c21 gave λ max of 514

====

Recorded λ max, one value per entry.
# protocolDescription: Visible absorption spectrum (λmax, ε)
# Type: physicochemical
# measurementParameters: in chloroform
Don't forget the unit after the value.

Known λ max results, listed for orientation:
Lab note: CCCCCCCCOc1c(F)c2c(c(F)c1Nc1c(CC)cccc1CC)C(=O)c1c(O)ccc(O)c1C2=O [(51)] gave λ max of 563 nm

Lab note: O=C1c2c(O)ccc(O)c2C(=O)c2c(F)c(Nc3c(Cl)cccc3Cl)c(Nc3c(Cl)cccc3Cl)c(F)c21 [(138)] gave λ max of 630 nm

Lab note: O=C1c2c(O)ccc(O)c2C(=O)c2c(F)c(NC3CCCCC3)c(F)c(F)c21 [(119)] gave λ max of 536 nm

---
Lab note: O=C1c2c(O)ccc(O)c2C(=O)c2c(F)c(Nc3ccccc3)c(Nc3ccccc3)c(F)c21 [(120)] gave λ max of 648 nm

====

# protocolDescription: Visible absorption spectrum (λmax, ε)
# Format: physicochemical
# measurementParameters: in chloroform, at λ max; in M-1 cm-1 (unit assumed)
resultType: ε
Form field (numeric): enter value without unit.

Lab note: CCOC(=O)c1cccc(Nc2c(F)c(F)c3c(c2F)C(=O)c2c(O)ccc(O)c2C3=O)c1 gave ε of 15300

Lab note: CCCCNc1c(F)c2c(c(NCCCC)c1NCCCC)C(=O)c1c(O)ccc(O)c1C2=O gave ε of 14900

Lab note: CCCCOC(=O)c1ccccc1Nc1c(F)c2c(c(F)c1Nc1ccccc1C(=O)OCCCC)C(=O)c1c(O)ccc(O)c1C2=O gave ε of 14700

Lab note: O=C1c2c(O)ccc(O)c2C(=O)c2c(F)c(SC3CCCCC3)c(SC3CCCCC3)c(F)c21 gave ε of 14000

Lab note: COc1ccc(Nc2c(F)c(F)c3c(c2F)C(=O)c2c(O)ccc(O)c2C3=O)cc1 gave ε of 10200

====

# protocolDescription: Visible absorption spectrum (λmax, ε)
# Type: physicochemical
# measurementParameters: in chloroform
resultType: λ max (nm)
Supply the numeric figure in nm, leaving out any unit text.

Known λ max results, listed for orientation:
Lab note: CC(C)(C)c1ccc(Nc2c(F)c3c(c(F)c2Nc2ccc(C(C)(C)C)cc2)C(=O)c2c(O)ccc(O)c2C3=O)cc1 gave λ max of 660

Lab note: CCCCCCSc1c(F)c2c(c(F)c1SCCCCCC)C(=O)c1c(O)ccc(O)c1C2=O gave λ max of 506

Lab note: CCCCNc1c(F)c2c(c(F)c1Nc1ccccc1)C(=O)c1c(O)ccc(O)c1C2=O gave λ max of 666

Lab note: CCCCCCCCSc1c(F)c2c(c(F)c1SCCCCCCCC)C(=O)c1c(O)ccc(O)c1C2=O gave λ max of 504

Lab note: COc1ccccc1Nc1c(F)c(F)c2c(c1F)C(=O)c1c(O)ccc(O)c1C2=O gave λ max of 557

Lab note: CCCCNc1c(F)c(F)c2c(c1F)C(=O)c1c(O)ccc(O)c1C2=O gave λ max of 533

---
Lab note: CCc1cccc(CC)c1Nc1c(F)c(F)c2c(c1F)C(=O)c1c(O)ccc(O)c1C2=O gave λ max of 528

Lab note: COc1cccc(Nc2c(F)c(F)c3c(c2F)C(=O)c2c(O)ccc(O)c2C3=O)c1 gave λ max of 532

Lab note: CCCCNc1c(F)c2c(c(NCCCC)c1NCCCC)C(=O)c1c(O)ccc(O)c1C2=O gave λ max of 614

====

# protocolDescription: Visible absorption spectrum (λmax, ε)
# Assay type: physicochemical
# measurementParameters: in chloroform, at λ max; in M-1 cm-1 (unit assumed)
resultType: ε
Form field (numeric): enter value without unit.

Lab note: CCOC(=O)c1cccc(Nc2c(F)c3c(c(F)c2Nc2cccc(C(=O)OCC)c2)C(=O)c2c(O)ccc(O)c2C3=O)c1 gave ε of 20100

Lab note: CCCCCCSc1c(F)c2c(c(F)c1SCCCCCC)C(=O)c1c(O)ccc(O)c1C2=O gave ε of 11300

Lab note: N#Cc1ccc(Nc2c(F)c(F)c3c(c2F)C(=O)c2c(O)ccc(O)c2C3=O)cc1 gave ε of 20600

Lab note: COc1cccc(Nc2c(F)c3c(c(F)c2Nc2cccc(OC)c2)C(=O)c2c(O)ccc(O)c2C3=O)c1 gave ε of 13400

Lab note: CCc1cccc(CC)c1Nc1c(F)c(F)c2c(c1F)C(=O)c1c(O)ccc(O)c1C2=O gave ε of 14200

---
Lab note: CC(C)c1cccc(C(C)C)c1Nc1c(F)c(F)c2c(c1F)C(=O)c1c(O)ccc(O)c1C2=O gave ε of 12800

Lab note: CCCCSc1c(SCCCC)c(SCCCC)c2c(c1SCCCC)C(=O)c1c(O)ccc(O)c1C2=O gave ε of 11100

====

# protocolDescription: Color tone of the dye
# Type: physicochemical
# measurementParameters: Tables 1-9
resultType: Color tone

Lab note: CCc1cccc(CC)c1Nc1c(F)c(F)c2c(c1F)C(=O)c1c(O)ccc(O)c1C2=O [(18)] gave Color tone of Magenta

Lab note: O=C1c2c(O)ccc(O)c2C(=O)c2c(F)c(Nc3ccccc3)c(F)c(F)c21 [(1)] gave Color tone of Magenta

Lab note: COc1ccc(Nc2c(F)c(F)c3c(c2F)C(=O)c2c(O)ccc(O)c2C3=O)cc1 [(15)] gave Color tone of Magenta

Lab note: N#Cc1ccc(Nc2c(F)c(F)c3c(c2F)C(=O)c2c(O)ccc(O)c2C3=O)cc1 [(10)] gave Color tone of Magenta

Lab note: CCCCCCCCOc1c(F)c2c(c(F)c1Nc1ccc(C(=O)OCCCC)cc1)C(=O)c1c(O)ccc(O)c1C2=O [(36)] gave Color tone of Magenta

Lab note: CCOC(=O)c1cccc(Nc2c(F)c(F)c3c(c2F)C(=O)c2c(O)ccc(O)c2C3=O)c1 [(4)] gave Color tone of Magenta

Lab note: O=C1c2c(O)ccc(O)c2C(=O)c2c(F)c(Sc3ccccc3)c(Sc3ccccc3)c(F)c21 [(298)] gave Color tone of Orange

Lab note: CC(C)(C)c1ccc(Nc2c(F)c3c(c(F)c2Nc2ccc(C(C)(C)C)cc2)C(=O)c2c(O)ccc(O)c2C3=O)cc1 [(130)] gave Color tone of Cyan

---
Lab note: O=C(O)c1c(F)c(F)c(Sc2c(F)c3c(c(F)c2Sc2c(F)c(F)c(C(=O)O)c(F)c2F)C(=O)c2c(O)ccc(O)c2C3=O)c(F)c1F [(299)] gave Color tone of Cinnabar

Lab note: CCCCNc1c(F)c(F)c2c(c1F)C(=O)c1c(O)ccc(O)c1C2=O [(117)] gave Color tone of Magenta

Lab note: CCCCCCCCOc1c(F)c2c(c(F)c1Nc1ccc(C#N)cc1)C(=O)c1c(O)ccc(O)c1C2=O [(45)] gave Color tone of Magenta
